Reported log10 of IC50 values for a set of molecules
Target: PTGER2 (EP2) (Homo sapiens (Human))
Sequence (P43116 whole entry): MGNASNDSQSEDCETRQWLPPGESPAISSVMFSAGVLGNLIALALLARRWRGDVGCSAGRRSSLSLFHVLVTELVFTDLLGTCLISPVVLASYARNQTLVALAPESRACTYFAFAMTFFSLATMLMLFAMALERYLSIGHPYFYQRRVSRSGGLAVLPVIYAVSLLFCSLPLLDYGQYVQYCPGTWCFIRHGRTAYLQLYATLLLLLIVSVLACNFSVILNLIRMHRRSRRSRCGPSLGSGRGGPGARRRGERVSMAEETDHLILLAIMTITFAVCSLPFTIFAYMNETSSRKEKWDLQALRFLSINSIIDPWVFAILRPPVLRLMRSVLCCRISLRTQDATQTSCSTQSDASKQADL
Test: hEP2 b-arrestin assay (PathHunter HEK 293 PTGER2 b-arrestin cells)
Type: cell-based
Conditions: antagonistic activity on hEP2; mean where measured multiple times
Kindly note that the scale is log10 and the underlying IC50 is in nM.

I am curious: what log10 of IC50 value has been reported for CCc1cc(-c2cc(NCCn3c(C)cc4c(OC)cc(F)cc43)ncn2)ccc1C(=O)O [compound 283] ?
1.23

I am curious: what log10 of IC50 value has been reported for COc1nc(-c2cc(NCCn3c(C)cc4c(OC)ccc(F)c43)ncn2)cs1 [compound 2] ?
2.43

I am curious: what log10 of IC50 value has been reported for Cc1cc2ccccc2n1CCNc1cc(-c2ccc(-c3nnc(N)s3)cc2)ncn1 [compound 363] ?
0.00

I am curious: what log10 of IC50 value has been reported for CCOc1cc(-c2cc(NCCn3c(C)cc4cc(C)cc(Cl)c43)ncn2)ccc1C(=O)O [compound 284] ?
1.53

I am curious: what log10 of IC50 value has been reported for COc1cccc2c1cc(C)n2CCNc1cc(-c2ccc(Cn3cccn3)c(F)c2)ncn1 [compound 308] ?
2.58

I am curious: what log10 of IC50 value has been reported for CCOc1cc(-c2cc(NCCn3c(C)cc4c(C)ccc(F)c43)ncn2)ccc1CO [compound 124] ?
0.85

I am curious: what log10 of IC50 value has been reported for CCCc1cc(-c2cc(NCCn3c(C)cc4cc(C)cc(F)c43)ncn2)ccc1C(=O)O [compound 267] ?
1.41

I am curious: what log10 of IC50 value has been reported for COc1ccc(F)c2c1cc(C)n2CCNc1cc(-c2cc(C)c(C(=O)O)c(Cl)c2)ncn1 [compound 156] ?
1.89

----------
Reported pIC50 values for a set of compounds
Biological target: UniProt:P35408
Sequence (P35408 whole entry): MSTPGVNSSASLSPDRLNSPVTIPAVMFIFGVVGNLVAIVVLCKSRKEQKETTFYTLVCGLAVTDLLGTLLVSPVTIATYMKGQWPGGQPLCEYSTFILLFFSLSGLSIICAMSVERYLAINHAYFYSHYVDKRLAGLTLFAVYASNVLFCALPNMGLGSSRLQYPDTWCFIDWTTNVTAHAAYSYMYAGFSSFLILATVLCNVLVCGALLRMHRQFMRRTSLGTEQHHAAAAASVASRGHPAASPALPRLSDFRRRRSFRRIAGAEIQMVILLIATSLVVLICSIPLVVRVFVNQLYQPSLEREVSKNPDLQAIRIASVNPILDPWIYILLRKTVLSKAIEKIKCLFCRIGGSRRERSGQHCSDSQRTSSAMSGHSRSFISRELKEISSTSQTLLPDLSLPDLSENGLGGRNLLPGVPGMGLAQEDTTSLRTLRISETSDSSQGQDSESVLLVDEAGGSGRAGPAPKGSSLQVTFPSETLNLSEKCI
Experiment: hEP4 cAMP assay (BT549 breast cancer cells, HTRF cAMP)
Type: cell-based
Conditions: antagonistic activity; mean values where measured multiple times
pIC50 is defined as minus the log10 of a concentration measured in mol/L.

molecularString	pIC50
COc1cccc2c1cc(C)n2CCNc1cc(-c2ccc(C(=O)O)c(CC(C)C)c2)ncn1	6.79

I am curious: what pIC50 value has been reported for COc1ccc(F)c2c1cc(C)n2CCNc1cc(-c2ccc(C(=O)O)c(OC(F)(F)F)c2)ncn1 ?
6.73

I am curious: what pIC50 value has been reported for COc1ccc(F)c2c1cc(C)n2CCNc1cc(-c2ccc(C(=O)O)c(CC(C)C)c2)ncn1 ?
7.09

I am curious: what pIC50 value has been reported for Cc1cc(Cl)cc2c1cc(C)n2CCNc1cc(-c2ccc(C(=O)O)c(CC(C)C)c2)ncn1 ?
6.47

I am curious: what pIC50 value has been reported for COc1ccc(F)c2c1cc(C)n2CCNc1cc(-c2cc(C(F)(F)F)c(C(=O)O)s2)ncn1 ?
8.10

I am curious: what pIC50 value has been reported for COc1cc(F)c(F)c2c1cc(C)n2CCNc1cc(-c2ccc(-c3cncn3C)cc2)ncn1 ?
6.82

I am curious: what pIC50 value has been reported for COc1cccc2c1cc(C)n2CCNc1cc(-c2cc(Cl)c(C(=O)O)c(OCC(C)C)c2)ncn1 ?
6.75

I am curious: what pIC50 value has been reported for COc1cc(F)cc2c1cc(C)n2CCNc1cc(-c2ccc(-c3ncnn3C)cc2)ncn1 ?
6.26

Cited source: patent US12011444B2
